biological target: IRAK4 (Homo sapiens (Human), UniProt Q9NWZ3); assay: IRAK4 enzymatic assay; format: biochemical
Sequence (Q9NWZ3 whole entry): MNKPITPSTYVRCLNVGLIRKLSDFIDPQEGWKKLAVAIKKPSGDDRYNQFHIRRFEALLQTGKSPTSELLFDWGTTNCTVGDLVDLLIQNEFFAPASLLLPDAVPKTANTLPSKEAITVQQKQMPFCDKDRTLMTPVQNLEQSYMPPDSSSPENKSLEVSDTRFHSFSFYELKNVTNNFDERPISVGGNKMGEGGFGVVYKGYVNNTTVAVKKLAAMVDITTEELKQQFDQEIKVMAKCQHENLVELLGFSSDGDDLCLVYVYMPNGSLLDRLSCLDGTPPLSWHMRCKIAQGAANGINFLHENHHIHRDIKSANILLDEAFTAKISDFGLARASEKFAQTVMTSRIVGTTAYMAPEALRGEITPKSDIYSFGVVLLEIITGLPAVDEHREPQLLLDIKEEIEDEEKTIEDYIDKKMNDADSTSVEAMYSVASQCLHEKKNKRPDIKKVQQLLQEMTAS
pIC50: −log10 of the molar value. Counter-ions that a name gives are not always drawn.
pIC50 by entry:

Example compounds with recorded pIC50:
COMPOUND	pIC50
Cn1cc(-c2cccc(-c3ncc(-c4cnn(C)c4)c(NCCCCN)n3)c2)cn1	6.00 to 7.00
Cn1cc(-c2cccc(-c3ncc(-c4cnn(C)c4)c(NC45CC(CN)(C4)C5)n3)c2)cn1	> 7.00
CC(C)Nc1cc(-c2cccc(-c3cnn(C)c3)n2)ncc1-c1nnc(C(=O)N2CC[C@@H](O)C2)s1	> 7.00
CC(C)Nc1nc(-c2cccc(-c3cnn(C)c3)c2)ncc1-c1nnc(C2CCNCC2)s1	> 7.00
CN(CC1(F)COC1)c1nc(-c2cccc(-c3cnn(C)c3)c2)ncc1-c1cnn(C)c1	6.00 to 7.00
Cn1cc(-c2cccc(-c3ncc(-c4cnn(C)c4)c(NCC(N)=O)n3)c2)cn1 [Example 25, formate]	5.30 to 6.00

Query: # get_value(readout='pIC50', item= Cn1cc(-c2cccc(-c3ccc(-c4cnn(C5CCNCC5)c4)cn3)c2)cn1 [Example 1, Hydrochloride] )
Result: 6.00 to 7.00

Query: # get_value(readout='pIC50', item= COC(=O)c1nnc(-c2cnc(-c3cccc(-c4cnn(C)c4)c3)nc2NC2CCCNC2)s1 (centres unmarked) [Example 18, Hydrochloride] )
Result: > 7.00
